Provenance of the data: ChEMBL document CHEMBL1153066

The following molecules are listed with their measured Ki values.
- MEASURED TARGET: Calcitonin gene-related peptide type 1 receptor (Homo sapiens, UniProt O60894+Q16602)
- Sequence (Q16602 whole entry, one chain of several): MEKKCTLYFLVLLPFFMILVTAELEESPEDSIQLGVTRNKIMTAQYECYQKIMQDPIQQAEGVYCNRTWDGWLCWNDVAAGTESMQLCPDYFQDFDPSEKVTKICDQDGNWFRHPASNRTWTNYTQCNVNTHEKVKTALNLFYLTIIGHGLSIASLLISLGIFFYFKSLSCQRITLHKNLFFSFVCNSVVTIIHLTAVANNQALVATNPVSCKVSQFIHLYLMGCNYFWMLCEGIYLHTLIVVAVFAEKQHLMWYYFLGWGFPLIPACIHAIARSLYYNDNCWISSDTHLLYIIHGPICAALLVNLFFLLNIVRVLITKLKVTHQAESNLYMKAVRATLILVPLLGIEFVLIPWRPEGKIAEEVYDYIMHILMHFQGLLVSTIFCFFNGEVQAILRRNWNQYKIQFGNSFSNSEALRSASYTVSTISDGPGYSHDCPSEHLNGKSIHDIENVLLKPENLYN
- ASSAY: Displacement of [125I]human CGRP from human CLR expressed in HEK293 cells coexpressing human RAMP1
Kindly provide the numeric value in nM only, without the unit symbol.

# MOLECULE, UNITS LABEL, Ki
measured = [
    ("O=C(CN1CC2CCC(=O)Nc3cccc1c32)Nc1ccc2c(c1)C[C@]1(C2)C(=O)Nc2ncccc21 (single isomer, unassigned; isomer A) [ISOMER A]", "nM", 1.1),
]

The observed Ki for `O=C(Cn1c(=O)n2c3c(cccc31)NC(=O)C2)Nc1ccc2c(c1)C[C@]1(C2)C(=O)Nc2ncccc21` when tested with Calcitonin gene-related peptide type 1 receptor (Homo sapiens, UniProt O60894+Q16602) stands at 0.039

The observed Ki for CN1C(=O)C[C@@H]2CN(CC(=O)Nc3ccc4c(c3)C[C@]3(C4)C(=O)Nc4ncccc43)c3cccc1c32 (mixture of isomers) when tested with Calcitonin gene-related peptide type 1 receptor (Homo sapiens, UniProt O60894+Q16602) stands at 9.7

---

- ASSAY: Oral bioavailability in po dosed monkey at 2 mg/kg in 1% methylcellulose
- Format: ADME, organism-based, Macaca mulatta
- TEST CONTEXT: rhesus monkey, in vivo
EXPERIMENTAL READOUT: bioavailability (%)
Kindly provide the numeric value in % only, without the unit symbol.

Quick note, bioavailability for O=C(CN1CC2CC(=O)Nc3cccc1c32)Nc1ccc2c(c1)C[C@]1(C2)C(=O)Nc2ncccc21 (stereo in doubt; 5) [EPIMER A] landed at 49

---

The following compounds are listed with their measured half-life values.
- ASSAY: Half life in rat at 2 mg/kg, iv
- Assay type: ADME, organism-based
- Set-up: dose 2 mg/kg, route intravenous
- TEST CONTEXT: in vivo
Kindly provide the numeric value in h only, without the unit symbol.

Look over these answered cases.
# COMPOUND, EXPERIMENTAL READOUT, MEASURED RESULT
rows = [
    ("O=C(CN1CC2CC(=O)Nc3cccc1c32)Nc1ccc2c(c1)C[C@]1(C2)C(=O)Nc2ncccc21 (stereo in doubt; 5) [EPIMER A]", "half-life", 1.4),
    ("Cc1cc2c3c(c1)n(CC(=O)Nc1ccc4c(c1)C[C@]1(C4)C(=O)NC(=O)N1C)c(=O)n3CC(=O)N2C", "half-life", 1),
    ("O=C(Cn1c(=O)n2c3c(cccc31)NC(=O)C2)Nc1ccc2c(c1)C[C@]1(C2)C(=O)Nc2ncccc21", "half-life", 0.8),
]

# next compound below
Quick note, half-life for `O=C(Cn1cc2c3c(cccc31)NC(=O)C2)Nc1ccc2c(c1)C[C@]1(C2)C(=O)Nc2ncccc21` landed at 1.5

---

- MEASURED TARGET: Calcitonin gene-related peptide type 1 receptor (Homo sapiens, UniProt O60894+Q16602)
- ASSAY: Antagonist activity at human CLR expressed in HEK293 cells coexpressing human RAMP1 assessed as inhibition of human CGRPalpha-induced cAMP production after 30 mins by scintillation proximity assay in presence of 50% human serum
- Type: functional, cell-based
The following compounds are listed with their measured pIC50 values.
The value called pIC50 is obtained by taking minus log10 of the concentration in mol/L.

# COMPOUND, pIC50
rows = [
    ("O=C(CN1CC2CCC(=O)Nc3cccc1c32)Nc1ccc2c(c1)C[C@]1(C2)C(=O)Nc2ncccc21 (single isomer, unassigned; isomer A) [ISOMER A]", 7.64),
    ("CC12CC(=O)Nc3cccc(c31)N(CC(=O)Nc1ccc3c(c1)C[C@]1(C3)C(=O)Nc3ncccc31)C2 (single isomer, unassigned; isomer A) [ISOMER A]", 8.19),
]

# next compound below
Quick note, pIC50 for O=C(CN1CC2CCCC(=O)Nc3cccc1c32)Nc1ccc2c(c1)C[C@]1(C2)C(=O)Nc2ncccc21 (single isomer, unassigned; isomer A) landed at 7.43
